Target: UniProt J9SQF3
Sequence (J9SQF3 1-1709 isoform J9SQF3-12): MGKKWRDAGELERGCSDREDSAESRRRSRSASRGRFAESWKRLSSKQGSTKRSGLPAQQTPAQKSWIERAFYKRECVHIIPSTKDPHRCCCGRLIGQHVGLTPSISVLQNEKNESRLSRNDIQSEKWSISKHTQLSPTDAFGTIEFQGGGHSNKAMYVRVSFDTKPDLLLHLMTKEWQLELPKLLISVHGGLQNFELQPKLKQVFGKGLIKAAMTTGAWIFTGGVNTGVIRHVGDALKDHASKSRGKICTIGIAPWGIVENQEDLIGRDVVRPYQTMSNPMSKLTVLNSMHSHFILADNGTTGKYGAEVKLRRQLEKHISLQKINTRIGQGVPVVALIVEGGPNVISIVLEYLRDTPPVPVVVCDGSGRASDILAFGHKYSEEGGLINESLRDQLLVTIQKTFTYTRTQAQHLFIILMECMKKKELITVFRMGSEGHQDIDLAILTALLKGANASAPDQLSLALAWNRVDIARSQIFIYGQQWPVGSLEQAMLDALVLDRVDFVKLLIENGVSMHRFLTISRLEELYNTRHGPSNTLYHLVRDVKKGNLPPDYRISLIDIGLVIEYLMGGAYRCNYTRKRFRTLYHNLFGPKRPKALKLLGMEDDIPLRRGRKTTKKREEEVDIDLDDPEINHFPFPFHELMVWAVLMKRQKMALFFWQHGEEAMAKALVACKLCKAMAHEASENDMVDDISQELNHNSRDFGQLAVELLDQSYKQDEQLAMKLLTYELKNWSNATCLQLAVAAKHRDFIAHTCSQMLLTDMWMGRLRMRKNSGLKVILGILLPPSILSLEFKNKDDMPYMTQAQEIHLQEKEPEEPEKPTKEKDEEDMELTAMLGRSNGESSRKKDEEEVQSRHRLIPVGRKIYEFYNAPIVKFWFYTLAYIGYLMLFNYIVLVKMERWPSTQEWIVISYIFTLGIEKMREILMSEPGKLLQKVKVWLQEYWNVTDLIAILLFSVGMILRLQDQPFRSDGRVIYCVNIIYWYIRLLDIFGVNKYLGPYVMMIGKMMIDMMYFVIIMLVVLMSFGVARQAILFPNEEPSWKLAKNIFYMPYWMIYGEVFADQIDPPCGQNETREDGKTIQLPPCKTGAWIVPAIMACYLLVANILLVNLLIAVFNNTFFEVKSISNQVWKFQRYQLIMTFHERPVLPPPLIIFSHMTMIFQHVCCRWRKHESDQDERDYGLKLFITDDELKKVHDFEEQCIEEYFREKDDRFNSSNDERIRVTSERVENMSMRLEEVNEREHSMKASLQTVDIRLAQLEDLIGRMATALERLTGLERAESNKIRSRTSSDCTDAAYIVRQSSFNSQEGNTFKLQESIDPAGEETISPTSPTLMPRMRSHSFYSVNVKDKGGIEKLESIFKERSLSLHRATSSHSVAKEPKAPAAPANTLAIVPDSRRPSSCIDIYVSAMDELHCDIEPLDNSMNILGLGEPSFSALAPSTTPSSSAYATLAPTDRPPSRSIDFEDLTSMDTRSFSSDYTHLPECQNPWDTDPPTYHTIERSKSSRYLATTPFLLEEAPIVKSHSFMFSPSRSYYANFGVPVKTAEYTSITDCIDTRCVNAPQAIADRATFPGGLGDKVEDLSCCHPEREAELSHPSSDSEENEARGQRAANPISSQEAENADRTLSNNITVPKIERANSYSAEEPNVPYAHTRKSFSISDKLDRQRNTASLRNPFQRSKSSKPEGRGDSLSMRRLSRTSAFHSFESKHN
Experiment: TRPM3 ion channel driven Ca2+ uptake, Fluo-4 AM assay, PS-stimulated (mTRPM3)
Settings: TRPM3 overexpressing flip-in HEK293 cells stimulated with Pregnenolone sulfate (PS) 50 μM, activity ranges A, B, C
Description: Monitoring the TRPM3 Ion Channel Driven Ca^2+ Uptake. […] For mTRPM3, the intracellular Ca^2+ was measured with a Calcium responsive dye, Fluor-4 AM ester (Invitrogen). […] Channel inhibition was calculated compared to a non-PS stimulated control versus a condition stimulated with PS (50 μM) with vehicle. […]
pIC50: −log10 of the molar value.
The following molecules are listed with their measured pIC50 values.
Quantity Kind: pIC50

Molecule: Cc1oc2ccc(OCc3ccc(C(F)(F)F)cc3)cc2c1C(=O)O
Quantity Kind: pIC50
Result: < 4.70
//
Molecule: Cc1oc2ccc(OC(C)c3ccccc3)cc2c1C(=O)N[C@@H](CO)C(N)=O (single isomer, unassigned) [Cpd 336-Dia 2]
Quantity Kind: pIC50
Result: > 6.00
//
Molecule: Cc1oc2ccc(OC(CN(C)C)c3ccccc3)cc2c1C(=O)N[C@@H](CO)C(N)=O (single isomer, unassigned) [Cpd 347-En 1]
Quantity Kind: pIC50
Result: 4.70 to 6.00
//
Molecule: Cc1oc2ccc(OCc3ccccc3)cc2c1C(=O)NC1CNCC1F (racemic) [Cpd 094]
Quantity Kind: pIC50
Result: > 6.00
